# TEST SYSTEM: Concanavalin-A (Canavalia ensiformis) (UniProt P02866)
# Sequence (P02866 whole entry, looked up): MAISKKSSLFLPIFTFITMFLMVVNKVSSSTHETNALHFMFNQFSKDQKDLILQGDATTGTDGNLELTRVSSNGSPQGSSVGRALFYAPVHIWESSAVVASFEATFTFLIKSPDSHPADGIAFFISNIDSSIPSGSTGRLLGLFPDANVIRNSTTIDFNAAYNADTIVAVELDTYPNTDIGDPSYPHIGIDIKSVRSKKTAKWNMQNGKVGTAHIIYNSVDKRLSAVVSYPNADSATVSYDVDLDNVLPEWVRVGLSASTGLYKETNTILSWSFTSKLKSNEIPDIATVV
# METHOD SUMMARY: ConA small-molecule binders, primary screen, artefact control for SMM control protein annotation, biochemical, small-molecule microarray, Alexa647 label, 635 nm (AID 1127);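 also: z combines 667 nm emission intensity with signal-to-noise across three replicate slides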
# EXPERIMENTAL CONTEXT: ConA-A647 binding fluorescence, higher = more signal
Kindly supply the reported composite z-score values for the records listed here.
Give bare numbers.

For every item in the list below, what is its measured composite z-score?
1. O=C1C=C[C@@H](O)[C@@H]2[C@@H]3C(=O)N(Cc4ccccc4)C(=O)[C@@H]3CC[C@@H]12
2. CO[C@@H]1COC(=O)CC=C[C@H](C)[C@H](OC)COC(=O)[C@@H]2CCCN2C(=O)CC=C[C@H]1C
3. CC(C)[C@@H](OCc1ccccc1)[C@H](C)CON=C1[C@H]2CCn3c(=O)n(-c4ccccc4)c(=O)n3[C@H]2[C@H](O)[C@@H]2O[C@H]12
4. CCCCOC(OCCCC)C(O)CSc1ccc2ccccc2c1 (stereo unspecified)
5. C[C@H]1C=CCC(=O)OC[C@H](C)C(=O)N2CCC[C@H]2C(=O)OC1
6. CC(C)CON=C1C[C@@H](O)[C@@H](O)[C@@H]2[C@@H]3C(=O)N([C@@H](C)c4ccccc4)C(=O)[C@@H]3CC[C@@H]12
7. COC(=O)CC=C1c2ccccc2[C@H](OC)[C@H]1C

[0.619, -0.371, -0.0949, 0.196, -0.35, 0.0928, -0.334]

For every item in the list below, what is its measured composite z-score?
1. CC(C)=CCCC(C)=CCON=C1C[C@@H](O)[C@@H](O)[C@@H]2[C@@H]3C(=O)N(c4cccc(Oc5ccccc5)c4)C(=O)[C@@H]3CC[C@H]12
2. C=C(C)C(=O)OC[C@H]1CN2[C@@H](CC[C@@H](C)[C@@H]2c2ccc(Br)cc2)C(=O)O1
3. CCOC(=O)[C@H](CC(C)C)NC(=O)CCC1CC(OC(=O)NCCc2ccc(F)cc2)CC2(CCCC(COC(=O)NCCOC)O2)O1 (stereo partly specified)
4. CCN1C(=O)[C@H]2[C@H]3[C@H](O)[C@H](O)CC(=NOCC[C@@H]4C=C[C@H](OC(C)=O)[C@@H](COC(C)=O)O4)[C@@H]3CC[C@H]2C1=O
5. CON=C(C)CCN1CCCCc2nc(C)c(C)cc21
6. COC(=O)[C@H](Cc1ccccc1)NC(=O)[C@@H](C)CO

0.609
-0.426
0.646
0.544
-0.116
-1.01

----------
# TEST SYSTEM: Torsin-1A-interacting protein 2 (Homo sapiens) (UniProt Q8NFQ8)
# Sequence (Q8NFQ8 whole entry, looked up): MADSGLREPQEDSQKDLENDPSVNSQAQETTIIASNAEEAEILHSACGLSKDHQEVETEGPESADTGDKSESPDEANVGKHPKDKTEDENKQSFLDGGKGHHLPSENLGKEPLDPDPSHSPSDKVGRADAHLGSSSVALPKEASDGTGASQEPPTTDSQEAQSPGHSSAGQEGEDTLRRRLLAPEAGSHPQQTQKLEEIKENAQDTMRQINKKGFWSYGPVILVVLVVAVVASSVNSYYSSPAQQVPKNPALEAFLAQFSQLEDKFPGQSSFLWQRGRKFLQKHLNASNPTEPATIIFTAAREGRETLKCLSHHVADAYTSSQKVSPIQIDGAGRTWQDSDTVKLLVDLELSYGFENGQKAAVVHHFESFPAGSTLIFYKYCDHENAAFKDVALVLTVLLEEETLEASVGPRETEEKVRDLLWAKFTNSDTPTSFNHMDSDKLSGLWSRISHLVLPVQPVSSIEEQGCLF
# METHOD SUMMARY: LULL1 binders on small-molecule microarray, primary screen, cell lysate, human LULL1 lysate, 635/667 nm fluorescence (AID 1092);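 also: probe is lysate of COS7 cells overexpressing human LULL1; score merges per-feature 667 nm fluorescence with signal-to-noise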
# EXPERIMENTAL CONTEXT: hLULL1 lysate binding, 635 nm fluorescence, higher = more signal
MEASURED METRIC: composite z-score
Answers are plain numbers.

Recorded composite z-score, per entry:
C=CC[C@@H]1C=C[C@H](ON=C[C@@H](NS(=O)(=O)c2ccc(C)cc2)[C@H](C)C=CCC(=O)OC)[C@@H](CO)O1 :: 0.324
C[C@@H]1CC[C@@H](C(=O)O)N[C@H]1c1cccc(N2CCOCC2)c1 :: 0.879
O=C1C[C@@H](O)[C@@H](O)[C@@H]2[C@@H]3C(=O)N(c4ccc(F)cc4F)C(=O)[C@@H]3CC[C@H]12 :: 0.734

For every item in the list below, what is its measured composite z-score?
1. CC(C)CON=C1[C@H]2CCn3c(=O)n(C)c(=O)n3[C@H]2[C@H](O)[C@@H]2O[C@H]12
2. CCCNC(=O)OC[C@H]1O[C@H](CCON=C[C@@H](NS(=O)(=O)c2ccc(C)cc2)[C@H](C)C=CCC(=O)OC)C=C[C@@H]1Oc1ccc(OC)cc1
3. CCOC(=O)[C@H](Cc1ccccc1)NC(=O)CCC1CC(OC(=O)NCc2cccc3ccccc23)CC2(CCCC(COC(=O)NCCc3ccccc3OC)O2)O1 (stereo partly specified)
4. CCOC(=O)[C@H](Cc1ccccc1)NC(=O)CCC1CC(OC(=O)NCc2cccc3ccccc23)CC2(CCCC(COC(=O)NCCOc3ccccc3)O2)O1 (stereo partly specified)
5. COC(=O)[C@@H]1CC[C@H](C)[C@@H](c2ccc(Br)cc2)N1
6. O=C1[C@H]2[C@H]3[C@H](O)[C@H](O)CC(=NO[C@@H]4O[C@H](CO)[C@@H](O)[C@H](O)[C@H]4O)[C@H]3CC[C@H]2C(=O)N1c1ccc(F)cc1F
7. C[C@@H]1CC[C@H]2C(=O)O[C@@H](COc3ccc(C(C)(C)C)cc3)CN2[C@H]1c1ccc(Br)cc1

1: -0.0761; 2: -0.0006; 3: 1.95; 4: 3.18; 5: 1.24; 6: 0.0348; 7: 0.456

For every item in the list below, what is its measured composite z-score?
1. C=CC[C@@H]1C=C[C@H](ON=C(C)CCN2CCCc3nc(C)c(C)cc32)[C@@H](CO)O1
2. CO[C@@H](C(C)C)[C@@H](C)C1OC(=O)CC1O (stereo partly specified)

0.644
0.338

For every item in the list below, what is its measured composite z-score?
1. CC(C)(C)N1C(=O)[C@H]2[C@H]3[C@H](O)[C@H](O)CC(=NOC[C@@H](O)COCc4ccco4)[C@@H]3CC[C@H]2C1=O
2. CCOC(=O)NN=C1C[C@@H](O)[C@@H](O)[C@@H]2[C@@H]3C(=O)N(C[C@@H]4CCCO4)C(=O)[C@@H]3CC[C@H]12
3. CC(C)[C@@H](OCc1ccccc1)[C@H](C)C=NO[C@@H](C)c1cn([C@H](CO)Cc2ccccc2)nn1
4. COC(=O)[C@@H]1CC[C@H](C)[C@@H](c2ccc(C)cc2)N1C(=O)c1ccc(C=NOC[C@@H](O)[C@H]2O[C@@H]3OC(C)(C)O[C@@H]3[C@H]2O)cc1
5. CO[C@H]1COC(=O)[C@H](C)COC(=O)[C@H](C)NC(=O)CC=C[C@H]1C
6. CCOC(=O)[C@H](Cc1ccccc1)NC(=O)CCC1CC(OC(=O)NCc2cccc3ccccc23)CC2(CCCC(COC(=O)NCc3ccc4c(c3)OCO4)O2)O1 (stereo partly specified)

1: -0.238; 2: 0.448; 3: 0.559; 4: 1.23; 5: 0.449; 6: 1.8

For every item in the list below, what is its measured composite z-score?
1. COC(=O)CC=C[C@@H](C)[C@@H](C=NOC(C)CN1CCCCc2nc(C)c(C)cc21)OC (stereo partly specified)
2. CC(=O)OC[C@H]1O[C@H](CC=NO[C@@H](C)c2cc(-c3c(C)cc(C)cc3C)no2)C=C[C@@H]1OC(C)=O

1.24
-0.382

----------
# Tested on: Human papillomavirus type 1a protein E7 (residues 44-93)
# METHOD SUMMARY: HPV1a E7 fragment binders on microarrays, primary screen, biochemical, small-molecule microarray, residues 44-93, 635 nm fluorescence (AID 1108);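 also: E7 fragment applied at 1 µg/mL in TBST for 1 h at 4 C; score combines spot fluorescence with its signal to noise ratio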
# EXPERIMENTAL CONTEXT: small-molecule microarray binding, fluorescence 635 nm; higher = more signal
// False strictly below 0.5 in composite z-score; True otherwise

Here's what some known entries look like.
CO[C@@H](C(C)C)[C@@H](C)C1OC(=O)CC1O (stereo partly specified) :: False
CC(=O)OC[C@H]1O[C@H](CC=NO[C@@H](C)c2cn([C@H](CO)Cc3ccccc3)nn2)C=C[C@@H]1OC(C)=O :: True
CCN1C(=O)[C@H]2[C@H]3[C@H](O)[C@H](O)CC(=NO[C@H](C)c4cn([C@@H]5COC[C@H]5O)nn4)[C@@H]3CC[C@H]2C1=O :: False
CCOC(=O)[C@H](Cc1ccccc1)NC(=O)CCC1CC(OC(=O)NCc2cccc3ccccc23)CC2(CCCC(COC(=O)NCCc3ccccc3OC)O2)O1 (stereo partly specified) :: True
CCOC(=O)[C@H](CC(C)C)NC(=O)CCC1CC(OC(=O)NCc2ccc3c(c2)OCO3)CC2(CCCC(COC(=O)NCCOC)O2)O1 (stereo partly specified) :: True
CC(C)CON=C1C[C@@H](O)[C@@H](O)[C@@H]2[C@@H]3C(=O)N([C@@H](C)c4ccccc4)C(=O)[C@@H]3CC[C@@H]12 :: False

Would you say CCN1C(=O)[C@H]2[C@H]3[C@H](O)[C@H](O)CC(=NO[C@H](C)c4cn([C@H](CO)Cc5ccccc5)nn4)[C@@H]3CC[C@H]2C1=O shows composite z-score at minimum 0.5?
False

----------
# System: Inhibin beta A chain (activin A)
# METHOD SUMMARY: INHBA (activin A) binders on microarrays, primary screen, biochemical, small-molecule microarray, 635 nm fluorescence scan (AID 1107);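 also: mouse activin A protein probed at 4.33 µg/mL on printed slides; score merges bound-protein fluorescence near 667 nm with spot signal-to-noise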
# EXPERIMENTAL CONTEXT: small-molecule microarray binding, higher = more signal
Each entry belongs to exactly one class, chosen by where its composite z-score falls: low (below 0.04), mid (0.04 to below 0.8), high (0.8 or more)

Here's what some known entries look like.
CC(C)[C@@H](OCc1ccccc1)[C@H](C)CON=C1[C@H]2CCn3c(=O)n(-c4ccccc4)c(=O)n3[C@H]2[C@H](O)[C@@H]2O[C@H]12 :: mid
CCOC(=O)CCN1C(=O)[C@H]2[C@H]3[C@H](O)[C@H](O)CC(=NNC(=O)OCC)[C@H]3CC[C@H]2C1=O :: high
COC(=O)CC=C[C@@H](C)[C@@H](C=NOC(C)CN1CCCCc2nc(C)c(C)cc21)NS(=O)(=O)c1ccc(C)cc1 (stereo not given in full) :: high
C[C@H]1CC[C@@H](C(=O)O)N[C@@H]1c1ccc(C#Cc2ccccc2)cc1 :: high
O=C(NN=C1C[C@@H](O)[C@@H](O)[C@@H]2[C@@H]3C(=O)N(Cc4ccccc4)C(=O)[C@@H]3CC[C@H]12)OCc1ccccc1 :: low
CC(CCC(=O)OC[C@H]1O[C@H](C#Cc2ccccc2)C=C[C@@H]1Oc1ccc(C)cc1)=NOC(C)CN1CCCCc2nc(C)c(C)cc21 (stereo not given in full) :: mid
COc1cccc([C@H]2Oc3ccc(OC)cc3C(=NOCC[C@@H]3C=C[C@H](OC(C)=O)[C@@H](COC(C)=O)O3)[C@@H]2O)c1 :: high
COC(=O)[C@H](C)NC(=O)CCC1CC(OC(=O)NCc2ccc3c(c2)OCO3)CC2(CCCC(COC(=O)NCc3ccccc3)O2)O1 (stereo not given in full) :: low

Which category does the recorded composite z-score put COc1ccc(O[C@H]2C=C[C@@H](c3ccccc3)O[C@@H]2CON=C2c3cc(OC)ccc3O[C@H](c3cccc(OC)c3)[C@H]2O)cc1 in?
low

Which category does the recorded composite z-score put COC(=O)CC=C[C@@H](C)[C@@H](C=NOC[C@@H](O)COCc1ccco1)NS(=O)(=O)c1ccc(C)cc1 in?
high
